Data credit: paper PMC4642525

biological target: butyrylcholinesterase (BChE, EC 3.1.1.8, from equine serum) (Equus caballus, UniProt P81908); construct: butyrylcholinesterase (BChE, EC 3.1.1.8, from equine serum); purchased Sigma-Aldrich (Germany); host or cells: equine serum; assay: biochemical; format: biochemical
Sequence (P81908 whole entry): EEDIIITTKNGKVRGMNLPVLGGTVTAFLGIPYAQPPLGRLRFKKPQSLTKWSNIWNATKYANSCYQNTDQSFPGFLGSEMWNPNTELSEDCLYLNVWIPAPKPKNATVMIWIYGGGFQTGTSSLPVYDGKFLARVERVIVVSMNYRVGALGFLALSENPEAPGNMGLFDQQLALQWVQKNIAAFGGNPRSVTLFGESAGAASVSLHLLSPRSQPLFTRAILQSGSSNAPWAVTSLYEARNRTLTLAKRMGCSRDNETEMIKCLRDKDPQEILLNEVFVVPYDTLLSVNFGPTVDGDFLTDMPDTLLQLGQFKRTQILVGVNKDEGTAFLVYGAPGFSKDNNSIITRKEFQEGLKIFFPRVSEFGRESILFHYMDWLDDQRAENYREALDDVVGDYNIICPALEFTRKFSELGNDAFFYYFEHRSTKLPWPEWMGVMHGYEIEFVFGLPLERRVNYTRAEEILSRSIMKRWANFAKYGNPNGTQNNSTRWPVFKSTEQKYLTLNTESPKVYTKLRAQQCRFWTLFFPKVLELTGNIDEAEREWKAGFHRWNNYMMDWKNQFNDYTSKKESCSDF
Record form. Attribute: IC50. Fill in for each entry.
Answers are plain numbers, in µM.

compound: c1ccc2c(c1)Nc1ccccc1S2 [phenothiazine]
IC50 / µM: 137

Below: the item to evaluate.
Q: Need IC50, item Cc1ccc2c(c1)c1c(n2CCc2ccc(C)nc2)CCN(C)C1 [dimebon, reference compound]
Result: 5.76

----------
target: МК-801 binding site of NMDA receptor (Rattus norvegicus, UniProt P35439); construct: A membrane preparation of hippocampus for radioligand analysis was prepared; from tissue; host or cells: rat hippocampal membranes; test: Radioligand binding, [3H]MK-801 site of NMDA receptor, hippocampal membranes; conditions: rat hippocampal membranes; read-out: [3H]МК-801, IC50
measure-name: pIC50
Answers are plain numbers, as −log10 of the molar value.

compound: CN1CCc2c(c3ccccc3n2CCC(=O)N2c3ccccc3Sc3ccccc32)C1
measurement-target: МК-801 binding site of NMDA receptor (Rattus norvegicus, UniProt P35439)
reported: 4.73

compound: CCN1CCc2c(c3cc(F)ccc3n2CC(O)CN2c3ccccc3Sc3ccccc32)C1 (racemic)
measurement-target: МК-801 binding site of NMDA receptor (Rattus norvegicus, UniProt P35439)
reported: 3.97

compound: CCN1CCc2c(c3ccccc3n2CCC(=O)N2c3ccccc3Sc3ccccc32)C1
measurement-target: МК-801 binding site of NMDA receptor (Rattus norvegicus, UniProt P35439)
reported: 4.84

// each listed compound needs a value for pIC50
1. CCc1ccc2c(c1)c1c(n2CCC(=O)N2c3ccccc3Sc3ccccc32)CCN(C)C1
2. Cc1ccc2c(c1)c1c(n2CCc2ccc(C)nc2)CCN(C)C1 [dimebon, reference compound]

Result:
1. 4.88
2. 4.04

Q: May I ask what pIC50 has been recorded for `CCN1CCc2c(c3cc(C)ccc3n2CCC(=O)N2c3ccccc3Sc3ccccc32)C1` ?
Result: 5.07

----------
target: ifenprodil binding site of NMDA receptor (NR2B subunit containing) (Rattus norvegicus, UniProt P35439+Q00960); construct: A membrane preparation of hippocampus for radioligand analysis was prepared; from tissue; host or cells: rat hippocampal membranes; experiment: Radioligand binding, [3H]ifenprodil site of NMDA receptor, hippocampal membranes; conditions: 100 μM compound; rat hippocampal membranes
Sequence (Q00960 27-1482, other chains not shown): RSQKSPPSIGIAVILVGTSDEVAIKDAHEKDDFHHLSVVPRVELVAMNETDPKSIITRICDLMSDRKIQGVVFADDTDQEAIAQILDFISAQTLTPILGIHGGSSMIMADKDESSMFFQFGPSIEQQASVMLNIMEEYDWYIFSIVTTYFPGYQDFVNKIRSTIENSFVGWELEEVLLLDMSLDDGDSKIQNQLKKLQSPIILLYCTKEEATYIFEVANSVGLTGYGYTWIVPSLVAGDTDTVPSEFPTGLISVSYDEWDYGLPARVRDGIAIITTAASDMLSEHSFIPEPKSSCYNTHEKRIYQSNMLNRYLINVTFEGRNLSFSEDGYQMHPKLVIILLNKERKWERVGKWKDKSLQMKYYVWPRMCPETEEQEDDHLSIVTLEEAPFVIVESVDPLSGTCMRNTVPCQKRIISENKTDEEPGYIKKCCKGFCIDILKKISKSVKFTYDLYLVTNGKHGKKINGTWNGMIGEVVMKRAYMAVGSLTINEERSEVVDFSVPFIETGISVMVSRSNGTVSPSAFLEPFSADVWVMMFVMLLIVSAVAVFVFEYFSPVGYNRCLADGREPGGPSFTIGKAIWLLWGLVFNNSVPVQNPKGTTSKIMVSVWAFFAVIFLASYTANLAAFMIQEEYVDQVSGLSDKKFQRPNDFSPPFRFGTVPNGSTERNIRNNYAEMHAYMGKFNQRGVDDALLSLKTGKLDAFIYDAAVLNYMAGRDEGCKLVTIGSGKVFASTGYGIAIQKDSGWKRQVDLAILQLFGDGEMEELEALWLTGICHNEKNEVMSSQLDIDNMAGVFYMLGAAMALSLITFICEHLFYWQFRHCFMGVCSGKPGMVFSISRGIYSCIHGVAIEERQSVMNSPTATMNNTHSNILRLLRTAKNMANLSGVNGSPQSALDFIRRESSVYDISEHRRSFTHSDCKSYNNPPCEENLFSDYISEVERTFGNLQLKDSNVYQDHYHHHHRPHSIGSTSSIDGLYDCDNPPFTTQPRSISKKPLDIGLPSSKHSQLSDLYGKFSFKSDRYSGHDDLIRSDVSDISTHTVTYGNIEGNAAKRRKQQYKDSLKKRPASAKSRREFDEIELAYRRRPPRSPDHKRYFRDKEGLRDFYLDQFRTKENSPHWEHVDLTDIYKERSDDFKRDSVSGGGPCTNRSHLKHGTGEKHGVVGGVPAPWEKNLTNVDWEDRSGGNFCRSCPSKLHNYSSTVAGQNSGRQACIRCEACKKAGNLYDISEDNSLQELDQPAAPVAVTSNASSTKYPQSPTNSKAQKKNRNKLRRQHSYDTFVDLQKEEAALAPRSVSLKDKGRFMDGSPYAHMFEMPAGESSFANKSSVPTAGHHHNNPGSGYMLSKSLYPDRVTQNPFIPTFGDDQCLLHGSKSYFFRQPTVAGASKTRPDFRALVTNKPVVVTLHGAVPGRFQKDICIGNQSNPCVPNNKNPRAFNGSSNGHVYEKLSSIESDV
measure-name: % of [3H]ifenprodil blockade at 100 μM of compound

Use these answered entries as a reference point.
smiles-notation: CN1CCc2c(c3ccccc3n2CCC(=O)N2c3ccccc3Sc3ccccc32)C1
reported: 60.1 ± 1.4%
--
smiles-notation: CCc1ccc2c(c1)c1c(n2CCC(=O)N2c3ccccc3Sc3ccccc32)CCN(C)C1
reported: 64.6 ± 5.2%

Read the next record carefully.
Q: Fill blank: measured % of [3H]ifenprodil blockade at 100 μM of compound of the molecule `CCN1CCc2c(c3cc(F)ccc3n2CCC(=O)N2c3ccccc3Sc3ccccc32)C1` is ____.
Result: 78.2 ± 6.8%

----------
biological target: Acetylcholinesterase (AChE, EC 3.1.1.7, from human erythrocyte) (Homo sapiens, UniProt P22303); construct: Acetylcholinesterase (AChE, EC 3.1.1.7, from human erythrocyte); purchased Sigma-Aldrich (Germany); host or cells: human erythrocytes; experiment: biochemical; assay type: biochemical; details: human erythrocyte AChE; pH 7.5, 25 °C, 10 min preincubation; read-out: IC50 (μM) ± SEM AChE
Sequence (P22303 other isoform, or with tags, fused parts or gaps): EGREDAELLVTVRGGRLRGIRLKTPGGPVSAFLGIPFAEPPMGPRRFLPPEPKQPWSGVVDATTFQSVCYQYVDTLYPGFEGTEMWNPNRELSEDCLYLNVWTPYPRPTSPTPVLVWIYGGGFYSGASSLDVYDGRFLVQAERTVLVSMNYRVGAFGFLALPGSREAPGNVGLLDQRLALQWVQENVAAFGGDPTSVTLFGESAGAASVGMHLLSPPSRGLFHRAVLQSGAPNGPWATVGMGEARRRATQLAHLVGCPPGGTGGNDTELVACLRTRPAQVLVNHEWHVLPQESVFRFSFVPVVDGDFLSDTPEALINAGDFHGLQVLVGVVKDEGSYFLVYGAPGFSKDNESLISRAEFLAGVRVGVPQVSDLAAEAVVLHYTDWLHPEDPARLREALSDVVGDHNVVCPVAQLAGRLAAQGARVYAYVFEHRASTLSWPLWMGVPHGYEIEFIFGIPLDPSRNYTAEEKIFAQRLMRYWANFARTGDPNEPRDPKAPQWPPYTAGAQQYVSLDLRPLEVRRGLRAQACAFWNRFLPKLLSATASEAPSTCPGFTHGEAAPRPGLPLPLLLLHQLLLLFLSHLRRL
measure-name: IC50

Solved cases (5 shown):
smiles-notation: CCN1CCc2c(c3cc(F)ccc3n2CCC(=O)N2c3ccccc3Sc3ccccc32)C1
measure-name: IC50
reported: > 200 µM
--
smiles-notation: CN1CCc2c(c3cc(F)ccc3n2CCC(=O)N2c3ccccc3Sc3ccccc32)C1
measure-name: IC50
reported: > 200 µM
--
smiles-notation: CCN1CCc2c(c3cc(C)ccc3n2CCC(=O)N2c3ccccc3Sc3ccccc32)C1
measure-name: IC50
reported: > 200 µM
--
smiles-notation: CCN1CCc2c(c3ccccc3n2CCC(=O)N2c3ccccc3Sc3ccccc32)C1
measure-name: IC50
reported: > 200 µM
--
smiles-notation: CC(C)c1ccc2c(c1)c1c(n2CCC(=O)N2c3ccccc3Sc3ccccc32)CCN(C)C1
measure-name: IC50
reported: > 100 µM

For each entry beneath this line, provide reported IC50.
1. CN1CCc2c(c3ccccc3n2CCC(=O)N2c3ccccc3Sc3ccccc32)C1
2. Cc1ccc2c(c1)c1c(n2CCC(=O)N2c3ccccc3Sc3ccccc32)CCN(C)C1
3. CCc1ccc2c(c1)c1c(n2CCC(=O)N2c3ccccc3Sc3ccccc32)CCN(C)C1

Result:
["> 200 µM", "> 200 µM", "> 100 µM"]

----------
biological target: МК-801 binding site of NMDA receptor (Rattus norvegicus); construct: A membrane preparation of hippocampus for radioligand analysis was prepared; from tissue; host or cells: rat hippocampal membranes; assay: Radioligand binding, [3H]MK-801 site of NMDA receptor, hippocampal membranes
measure-name: IC50 (µM)
Answers are plain numbers, in µM.

Q: Notebook: pull reported IC50 for МК-801 binding site of NMDA receptor (Rattus norvegicus), entry `CCN1CCc2c(c3cc(F)ccc3n2CCC(=O)N2c3ccccc3Sc3ccccc32)C1`
Result: 15.8

----------
target: ifenprodil binding site of NMDA receptor (NR2B subunit containing) (Rattus norvegicus, UniProt P35439+Q00960); construct: A membrane preparation of hippocampus for radioligand analysis was prepared; from tissue; host or cells: rat hippocampal membranes; experiment: Radioligand binding, [3H]ifenprodil site of NMDA receptor, hippocampal membranes; conditions: rat hippocampal membranes; read-out: [3H]ifenprodil, IC50
measure-name: IC50 (µM)
Numbers only, in µM.

# count of solved cases: 2
molecule: CCc1ccc2c(c1)c1c(n2CCC(=O)N2c3ccccc3Sc3ccccc32)CCN(C)C1 [C-1g]
reported: 15.4
--
molecule: Cc1ccc2c(c1)c1c(n2CCC(=O)N2c3ccccc3Sc3ccccc32)CCN(C)C1 [C-1a]
reported: 88.4

Quick one: give me IC50 for each item below, same order please.
1. Cc1ccc2c(c1)c1c(n2CCc2ccc(C)nc2)CCN(C)C1 [dimebon, reference compound]
2. CCN1CCc2c(c3ccccc3n2CCC(=O)N2c3ccccc3Sc3ccccc32)C1 [C-1e]
3. CC(C)c1ccc2c(c1)c1c(n2CCC(=O)N2c3ccccc3Sc3ccccc32)CCN(C)C1 [C-1h]
4. CCN1CCc2c(c3cc(C)ccc3n2CCC(=O)N2c3ccccc3Sc3ccccc32)C1 [C-1b]

Result:
1: 82.4; 2: 13.4; 3: 85.8; 4: 74.4

Give measured IC50 for every item shown.
1. Cc1ccc2c(c1)c1c(n2CC(O)CN2c3ccccc3Sc3ccccc32)CCN(C)C1 (racemic) [C-2a]
2. CN1CCc2c(c3ccccc3n2CCC(=O)N2c3ccccc3Sc3ccccc32)C1 [C-1d]
3. CCN1CCc2c(c3cc(F)ccc3n2CC(O)CN2c3ccccc3Sc3ccccc32)C1 (racemic) [C-2b]
4. CN1CCc2c(c3cc(F)ccc3n2CCC(=O)N2c3ccccc3Sc3ccccc32)C1 [C-1c]

Result:
1: 57.2; 2: 23.4; 3: 81.2; 4: 55.1

----------
target: ifenprodil binding site of NMDA receptor (NR2B subunit containing) (Rattus norvegicus, UniProt P35439+Q00960); construct: A membrane preparation of hippocampus for radioligand analysis was prepared; from tissue; host or cells: rat hippocampal membranes; assay: Radioligand binding, [3H]ifenprodil site of NMDA receptor, hippocampal membranes; conditions: read-out: [3H]ifenprodil, IC50; rat hippocampal membranes
measure-name: pIC50
Give bare numbers, as −log10 of the molar value.

Q: Given the molecule `COc1ccc2c(c1)c1c(n2C[C@@H](O)CN2c3ccccc3Sc3ccccc32)CCN(C)C1` , what is its reported pIC50?
Result: 3.94

----------
target: butyrylcholinesterase (BChE, EC 3.1.1.8, from equine serum) (Equus caballus, UniProt P81908); construct: butyrylcholinesterase (BChE, EC 3.1.1.8, from equine serum); purchased Sigma-Aldrich (Germany); host or cells: equine serum; assay: biochemical; format: biochemical; conditions: BChE; means ± SEM, at least three experiments
measure-name: αKi (non-competitive inhibition constant) (µM)
One number for each entry, in µM.

compound: CCN1CCc2c(c3cc(C)ccc3n2CCC(=O)N2c3ccccc3Sc3ccccc32)C1
reported: 1.46

compound: CCc1ccc2c(c1)c1c(n2CCC(=O)N2c3ccccc3Sc3ccccc32)CCN(C)C1
reported: 0.99

compound: CCN1CCc2c(c3ccccc3n2CCC(=O)N2c3ccccc3Sc3ccccc32)C1
reported: 0.65

compound: CN1CCc2c(c3ccccc3n2CCC(=O)N2c3ccccc3Sc3ccccc32)C1
reported: 1.64

compound: COc1ccc2c(c1)c1c(n2C[C@@H](O)CN2c3ccccc3Sc3ccccc32)CCN(C)C1
reported: 0.89

compound: CC(C)c1ccc2c(c1)c1c(n2CCC(=O)N2c3ccccc3Sc3ccccc32)CCN(C)C1
reported: 1.94

compound: CCN1CCc2c(c3cc(F)ccc3n2CCC(=O)N2c3ccccc3Sc3ccccc32)C1
reported: 0.52

compound: CN(C)c1ccc2nc3ccc(=[N+](C)C)cc-3sc2c1 [MB, methylene blue, reference compound]
reported: 0.64

compound: CCN1CCc2c(c3cc(F)ccc3n2CC(O)CN2c3ccccc3Sc3ccccc32)C1 (racemic)
reported: 2.98

Q: // lookup αKi (non-competitive inhibition constant) for `CN1CCc2c(c3cc(F)ccc3n2CCC(=O)N2c3ccccc3Sc3ccccc32)C1`
Result: 1.27
